Attribution: patent US6559173B1

Property: inhibition at 10 µM; scope: individual compounds
System: VEGF induced increases in intracellular calcium levels in HUVEC (human umbilical vein endothelial cells)
Assay: VEGF Stimulated Ca++ signal assay (FLIPR)
Format: cell-based
Conditions: Homo sapiens, 10 μM, 30 min pre-incubation, VEGF 5 ng/mL

compound	inhibition at 10 µM, %
CSc1[nH]nc(NC=C2C(=O)Nc3ccccc32)c1C#N [Example 18]	14.1
Cc1oc(C(C)(C)C)cc1-c1cc(NC=C2C(=O)Nc3ccccc32)n(C)n1 [Example 47]	79.7
O=C1Nc2ccccc2C1=CNc1n[nH]c(-c2ccccc2)c1Br [Example 11]	23.4
Cc1noc(NC=C2C(=O)Nc3ccccc32)c1C [Example 45]	84.9
O=C1Nc2ccc(F)cc2C1=CNc1cc(-c2ccco2)[nH]n1 [Example 27]	98.6
Cc1cc(NC=C2C(=O)Nc3ccc(F)cc32)n[nH]1 [Example 26]	97.1

----------
Biological target: cytoplasmic domain of the human VEGF receptor (VEGFR-2) (Homo sapiens)
Construct: The cytoplasmic domain of the human VEGF receptor (VEGFR-2) was expressed as a Histidine-tagged fusion protein; His tag (Histidine-tagged fusion)
Sequence (P35968 786-1356 limits assumed): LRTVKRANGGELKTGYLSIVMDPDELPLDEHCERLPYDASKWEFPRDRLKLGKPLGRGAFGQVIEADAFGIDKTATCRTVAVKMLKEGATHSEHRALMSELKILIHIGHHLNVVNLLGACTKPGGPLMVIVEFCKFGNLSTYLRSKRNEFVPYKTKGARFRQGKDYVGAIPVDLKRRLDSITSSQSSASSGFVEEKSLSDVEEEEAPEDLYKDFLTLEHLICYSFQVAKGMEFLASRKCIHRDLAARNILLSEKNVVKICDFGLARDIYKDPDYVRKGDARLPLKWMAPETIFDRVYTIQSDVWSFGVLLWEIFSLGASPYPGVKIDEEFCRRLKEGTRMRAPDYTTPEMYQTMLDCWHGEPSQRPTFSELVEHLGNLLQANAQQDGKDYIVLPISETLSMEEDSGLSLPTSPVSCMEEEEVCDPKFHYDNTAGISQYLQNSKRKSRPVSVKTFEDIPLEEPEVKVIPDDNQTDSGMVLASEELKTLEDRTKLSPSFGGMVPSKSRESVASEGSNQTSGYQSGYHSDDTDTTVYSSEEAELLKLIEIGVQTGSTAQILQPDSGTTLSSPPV
Assay: KDR Assay
Conditions: His-VEGFR-2, 3.6 μM ATP, poly-Glu-Tyr (4:1)
The label fulfilled is reserved for IC50 strictly under 600 nM; not fulfilled covers values equal to or above it.

compound	label-class
COc1cccc(-c2cc(NC=C3C(=O)Nc4ccccc43)[nH]n2)c1 [Example 33]	not fulfilled
CN(C)c1ccc(-c2cc(NC=C3C(=O)Nc4ccccc43)[nH]n2)cc1 [Example 35]	not fulfilled
CCOc1ccc(-c2cc(NC=C3C(=O)Nc4ccccc43)[nH]n2)cc1 [Example 38]	not fulfilled
O=C1Nc2cc(F)ccc2C1=CNc1cc(-c2ccccc2)[nH]n1 [Example 51]	not fulfilled
O=C1Nc2ccc(F)cc2C1=CNc1cc(-c2ccco2)[nH]n1 [Example 27]	fulfilled
Cc1cc(NC=C2C(=O)Nc3ccccc32)no1 [Example 44]	not fulfilled
Cc1oc(C(C)(C)C)cc1-c1cc(NC=C2C(=O)Nc3ccccc32)[nH]n1 [Example 29]	fulfilled
Cc1cc(NC=C2C(=O)Nc3ccccc32)n[nH]1 [Example 23]	fulfilled
Cc1cccc2c1C(=CNc1cc(-c3ccco3)[nH]n1)C(=O)N2 [Example 7]	fulfilled

----------
Tested on: VEGF induced increases in intracellular calcium levels in HUVEC (human umbilical vein endothelial cells)
Assay: VEGF Stimulated Ca++ signal assay (FLIPR)
Assay type: cell-based
Conditions: Homo sapiens, 10 μM, 30 min pre-incubation, VEGF 5 ng/mL

sample-smiles	inhibition at 10 µM (%)
Cc1cccc2c1C(=CNc1cc(-c3ccccc3)[nH]n1)C(=O)N2	64.5
O=C1Nc2ccccc2C1=CNc1n[nH]cc1Br	32.1
Cc1oc(C(C)(C)C)cc1-c1cc(NC=C2C(=O)Nc3ccccc32)[nH]n1	99.1
Cc1cccc2c1C(=CNc1cc(-c3ccco3)[nH]n1)C(=O)N2	98.3
O=C1Nc2ccc(Cl)cc2C1=CNc1n[nH]c(-c2ccccc2)c1Br	-19.1

----------
System: VEGF induced increases in intracellular calcium levels in HUVEC (human umbilical vein endothelial cells)
Test: VEGF Stimulated Ca++ signal assay (FLIPR)
Format: cell-based
Settings: Homo sapiens, 10 μM, 30 min pre-incubation, VEGF 5 ng/mL
Lab note: compare inhibition at 10 µM against 60%. Equal or greater, write rule met. Smaller, write rule not met.

sample-smiles	label-class
CN(C)c1ccc(-c2cc(NC=C3C(=O)Nc4ccccc43)[nH]n2)cc1	rule met
Cc1ccc(-c2cc(NC=C3C(=O)Nc4ccccc43)n[nH]2)cc1	rule met
O=C1Nc2ccc(Cl)cc2C1=CNc1cc(-c2ccccc2)[nH]n1	rule not met
Cc1cc(NC=C2C(=O)Nc3ccccc32)no1	rule met
Cc1cc(C)cc(-c2cc(NC=C3C(=O)Nc4ccccc43)[nH]n2)c1	rule not met
O=C1Nc2ccccc2C1=CNc1ccon1	rule met
O=C1Nc2ccc(Cl)cc2C1=CNc1cc(-c2ccco2)[nH]n1	rule met
O=C1Nc2ccc(Cl)cc2C1=CNc1cc[nH]n1	rule met
Cc1cccc2c1C(=CNc1n[nH]c(-c3ccccc3)c1Br)C(=O)N2	rule not met
COc1ccc(Cc2cc(NC=C3C(=O)Nc4ccccc43)n[nH]2)cc1	rule met
Cc1cc(C)c2c(NC=C3C(=O)Nc4ccccc43)n[nH]c2n1	rule not met
CC(C)(C)c1cc(NC=C2C(=O)Nc3ccccc32)n[nH]1	rule met
CCOC(=O)c1c[nH]nc1NC=C1C(=O)Nc2ccccc21	rule not met
Cc1cccc(Cc2cc(NC=C3C(=O)Nc4ccccc43)[nH]n2)c1	rule not met
COc1ccccc1-c1cc(NC=C2C(=O)Nc3ccccc32)[nH]n1	rule not met

----------
Target: cytoplasmic domain of the human VEGF receptor (VEGFR-2) (Homo sapiens)
Construct: The cytoplasmic domain of the human VEGF receptor (VEGFR-2) was expressed as a Histidine-tagged fusion protein; His tag (Histidine-tagged fusion)
Assay: KDR Assay
Conditions: His-VEGFR-2, 3.6 μM ATP, poly-Glu-Tyr (4:1)

compound	tested-target	IC50 / nM
O=C1Nc2cc(F)ccc2C1=CNc1cc(-c2ccco2)[nH]n1 [Example 50]	cytoplasmic domain of the human VEGF receptor (VEGFR-2) (Homo sapiens)	980
O=C1Nc2ccc(Cl)cc2C1=CNc1cc(-c2ccco2)[nH]n1 [Example 10]	cytoplasmic domain of the human VEGF receptor (VEGFR-2) (Homo sapiens)	1030
Cc1noc(NC=C2C(=O)Nc3ccccc32)c1C [Example 45]	cytoplasmic domain of the human VEGF receptor (VEGFR-2) (Homo sapiens)	980
Cc1cccc2c1C(=CNc1cc(-c3ccccc3)[nH]n1)C(=O)N2 [Example 8]	cytoplasmic domain of the human VEGF receptor (VEGFR-2) (Homo sapiens)	970

----------
Tested on: VEGF induced increases in intracellular calcium levels in HUVEC (human umbilical vein endothelial cells)
Test: VEGF Stimulated Ca++ signal assay (FLIPR)
Type: cell-based
Details: Homo sapiens, 10 μM, 30 min pre-incubation, VEGF 5 ng/mL
Procedure: VEGF Stimulated Ca^++ Signal in vitro Automated FLIPR (Fluorometric Imaging Plate Reader) technology was used to screen for inhibitors of VEGF induced increases in intracellular calcium levels in fluorescent dye loaded endothelial cells. […] Changes in fluorescence at 516 nm were measured simultaneously in all 96 wells using a cooled CCD camera. Data were generated by determining max-min fluorescence levels for unstimulated, stimulated, and drug treated samples. […]
endpoint-label: inhibition at 10 µM (%)

sample-smiles	endpoint-label	experimental-result
COc1cccc(-c2cc(NC=C3C(=O)Nc4ccccc43)[nH]n2)c1	inhibition at 10 µM	92.9
CCn1nccc1NC=C1C(=O)Nc2ccccc21	inhibition at 10 µM	42.4
O=C1Nc2ccccc2C1=CNc1cc(Cc2ccccc2)n[nH]1	inhibition at 10 µM	-0.03
